Test: Phase I study CXR1002-001: plasma pharmacokinetics (LC-MS/MS)
Type: in vivo, human
Conditions: human, plasma, oral, 200 mg, Patient 008 Dose 200 mg; 864 hr (Day 37); read-out: Concentration
parameter: concentration at 864 h (µM)
Entry rule: numbers only, all in µM.

Please fill in: concentration at 864 h reported for `O=C(O)C(F)(F)C(F)(F)C(F)(F)C(F)(F)C(F)(F)C(F)(F)C(F)(F)F` = 354

----------
Experiment: Phase I study CXR1002-001: plasma pharmacokinetics (LC-MS/MS)
Assay type: in vivo, human
Details: human, plasma, oral, 200 mg, Patient 010 Dose 200 mg; 168 hr (Day 8); read-out: Concentration
parameter: concentration at 168 h (µM)
Entry rule: numbers only, all in µM.

Please fill in: concentration at 168 h reported for `O=C(O)C(F)(F)C(F)(F)C(F)(F)C(F)(F)C(F)(F)C(F)(F)C(F)(F)F` = 51
